Below: a set of entries, each annotated with reported cell viability.
system: KG-1; assay: cell viability (% survival relative to DMSO control, bortezomib = 0%); higher = less cytotoxic; settings: 1 nM; 72 h
The answer is to be given in %; state only the numeric part.

Examples with their reported cell viability follow.
O=C(O)C(S)=Cc1c[nH]c2ccc(F)cc12 = 101
Nc1ncnc2c1ncn2[C@@H]1O[C@H](CSCC[C@H](N)C(=O)O)[C@@H](O)[C@H]1O [S-Adenosyl Homocysteine] = 110
Cc1coc2c1C(=O)C(=O)c1c-2ccc2c(C)cccc12 [Tanshinone I] = 113

// next item, cell viability requested
[ask] Need cell viability of O=C(O)CC[C@H](NC(=O)c1ccc([N+](=O)[O-])cc1)C(=O)O [(S)-2-(4-Nitrobenzamido)pentanedioic acid] , thanks.
[reply] 95.5

====

tested on: SHI-1; assay: cell viability (% survival relative to DMSO control, bortezomib = 0%); higher = less cytotoxic; conditions: 1000 nM; 72 h
MEASUREMENT_LABEL: cell viability (%)
The answer is to be given in %; state only the numeric part.

[ask] Need cell viability of CCOC(=O)[C@H]1O[C@@H]1C(=O)N[C@@H](CC(C)C)C(=O)NCCC(C)C [Aloxistatin] , thanks.
[reply] 102

[ask] Need cell viability of Cc1c(-c2ccccc2)oc2c(C(=O)OCCN3CCCCC3)cccc2c1=O.Cl [Flavoxate] , thanks.
[reply] 98.4

[ask] Need cell viability of O=C(c1ccc(OCCN2CCCCC2)cc1)c1c(-c2ccc(O)cc2)sc2cc(O)ccc12 [Raloxifene] , thanks.
[reply] 110

[ask] Need cell viability of COc1c(C)c2c(c(O)c1C/C=C(\C)CCC(=O)O)C(=O)OC2 [Mycophenolic acid] , thanks.
[reply] 77.2

[ask] Need cell viability of O=C(O)c1nn(Cc2ccc(Cl)cc2Cl)c2ccccc12 [Lonidamine] , thanks.
[reply] 95.5

====

Below: a set of entries, each annotated with reported cell viability.
tested on: MV4-11; assay: cell viability (% survival relative to DMSO control, bortezomib = 0%); higher = less cytotoxic; conditions: 10000 nM; 72 h
The answer is to be given in %; state only the numeric part.

Examples with their reported cell viability follow.
CC(/C=C1\SC(=S)N(CC(=O)O)C1=O)=C\c1ccccc1 = 110
CN(C)c1nc(O)c2[nH]cnc2n1 [2-Dimethylamino-6-hydroxypurine] = 89.8
C[C@]12O[C@H](C[C@]1(O)CO)n1c3ccccc3c3c4c(c5c6ccccc6n2c5c31)CNC4=O = 0.212
O=C(O)C(S)=Cc1c[nH]c2ccc(F)cc12 = 83.6
COc1c(C)c2c(c(O)c1C/C=C(\C)CCC(=O)O)C(=O)OC2 = -0.47

// next item, cell viability requested
[ask] Need cell viability of OCCN1CCN(CCCN2c3ccccc3Sc3ccc(Cl)cc32)CC1 , thanks.
[reply] 9.41

====

tested on: ML-2; experiment: cell viability (% survival relative to DMSO control, bortezomib = 0%); higher = less cytotoxic; details: 10 nM; 72 h
MEASUREMENT_LABEL: cell viability (%)
The answer is to be given in %; state only the numeric part.

Cc1ccc(S(=O)(=O)NC2c3ccccc3Oc3ccccc32)cc1 = 99.2

[ask] Need cell viability of CC(/C=C1\SC(=S)N(CC(=O)O)C1=O)=C\c1ccccc1 , thanks.
[reply] 101

[ask] Need cell viability of CCOC(=O)N1c2ccc(C(F)(F)F)cc2[C@@H](N(Cc2cc(C(F)(F)F)cc(C(F)(F)F)c2)C(=O)OC)C[C@H]1CC , thanks.
[reply] 97

[ask] Need cell viability of CN(C/C=C/C#CC(C)(C)C)Cc1cccc2ccccc12 , thanks.
[reply] 101

[ask] Need cell viability of Clc1ccc2c(c1Cl)CNCC2 , thanks.
[reply] 118

[ask] Need cell viability of COc1c(C)c2c(c(O)c1C/C=C(\C)CCC(=O)O)C(=O)OC2 , thanks.
[reply] 105

====

Below: a set of entries, each annotated with reported cell viability.
tested on: HL-60; assay: cell viability (% survival relative to DMSO control); higher = less cytotoxic; conditions: 10 µM; 72 h; co-treatment: pictilisib 100 nM
The answer is to be given in %; state only the numeric part.

Examples with their reported cell viability follow.
CN(C)c1nc(O)c2[nH]cnc2n1 [2-Dimethylamino-6-hydroxypurine] = 99
C[C@]12CC[C@H](O)CC1=CC[C@@H]1[C@@H]2CC[C@]2(C)C(c3cccnc3)=CC[C@@H]12 [Abiraterone] = 108
O=C(O)CC[C@H](NC(=O)c1ccc([N+](=O)[O-])cc1)C(=O)O [(S)-2-(4-Nitrobenzamido)pentanedioic acid] = 92.3

[ask] Form entry - test system: HL-60; read-out: cell viability; compound: Cc1c(-c2ccccc2)oc2c(C(=O)OCCN3CCCCC3)cccc2c1=O.Cl [Flavoxate]
[reply] 91.7

====

Below: a set of entries, each annotated with reported area under dose-response curve.
test system: myeloid leukemia patient primary cells Pat.12; assay: area under dose-response curve (viability, 1 nM-10 uM) (fraction (0-1)); higher = more sensitive; details: 72 h
Write the number on its own, no unit after it.

C[C@H]1O[C@@H](O[C@H]2[C@@H](O)C[C@H](O[C@H]3[C@@H](O)C[C@H](O[C@H]4CC[C@@]5(C)[C@H](CC[C@@H]6[C@@H]5C[C@@H](O)[C@]5(C)[C@@H](C7=CC(=O)OC7)CC[C@]65O)C4)O[C@@H]3C)O[C@@H]2C)C[C@H](O)[C@@H]1O [Digoxin] = 0.275
C[C@]12O[C@H](C[C@]1(O)CO)n1c3ccccc3c3c4c(c5c6ccccc6n2c5c31)CNC4=O [Lestaurtinib] = 0.125

[ask] Form entry - test system: myeloid leukemia patient primary cells Pat.12; read-out: area under dose-response curve; compound: CCN(CC)CCN(Cc1ccc(-c2ccc(C(F)(F)F)cc2)cc1)C(=O)Cn1c(SCc2ccc(F)cc2)nc(=O)c2c1CCC2 [Darapladib]
[reply] 0.134

====

tested on: THP-1; experiment: cell viability (% survival relative to DMSO control, bortezomib = 0%); higher = less cytotoxic; conditions: 100 nM; 72 h
Below: a set of entries, each annotated with reported cell viability.
The answer is to be given in %; state only the numeric part.

Examples with their reported cell viability follow.
CC(C)C[C@H](NC(=O)[C@@H](O)[C@H](N)Cc1ccccc1)C(=O)O = 93.1
O=C1Nc2ccccc2/C1=C\NCCc1ccc(O)c(O)c1 = 100
C1CCc2nnc(C34CC5CC(CC(C5)C3)C4)n2CC1 = 93.7
CC(Cc1ccc(O)c(O)c1)C(C)Cc1ccc(O)c(O)c1 (centres undefined) = 96.2
Cc1c(-c2ccccc2)oc2c(C(=O)OCCN3CCCCC3)cccc2c1=O.Cl [Flavoxate] = 93.5
CCN(CC)CCN(Cc1ccc(-c2ccc(C(F)(F)F)cc2)cc1)C(=O)Cn1c(SCc2ccc(F)cc2)nc(=O)c2c1CCC2 = 100
Nc1ncnc2c1ncn2[C@@H]1O[C@H](CSCC[C@H](N)C(=O)O)[C@@H](O)[C@H]1O = 100
O=C(O)c1cc2sccc2[nH]1 [4H-thieno[3,2-b]pyrrole-5-carboxylic acid] = 106
CCCc1nn(C)c2c(O)nc(-c3cc(S(=O)(=O)N4CCN(C)CC4)ccc3OCC)nc12 = 97.1
C=CCc1ccc2c(c1O)C(=O)c1ccccc1C2=O = 102

[ask] Need cell viability of [N-]=[N+]=CC(=O)CC[C@H](N)C(=O)O , thanks.
[reply] 100

[ask] Need cell viability of Sc1ncnc2nc[nH]c12 , thanks.
[reply] 98.1

[ask] Need cell viability of O=P(O)(O)C(O)(Cn1ccnc1)P(=O)(O)O , thanks.
[reply] 91.5

[ask] Need cell viability of C1CCC(C(CC2CCCCN2)C2CCCCC2)CC1.O=C(O)/C=C\C(=O)O (centres undefined) , thanks.
[reply] 100

====

Below: a set of entries, each annotated with reported cell viability.
test system: KCL-22; experiment: cell viability (% survival relative to DMSO control, bortezomib = 0%); higher = less cytotoxic; settings: 10 nM; 72 h

[ask] Need cell viability of c1ccc2c(c1)OCC(=C1NCCN1)O2 , thanks.
[reply] 104%

[ask] Need cell viability of CC(C)Cc1sc(N)nc1-c1ccc(P(=O)(O)O)o1 , thanks.
[reply] 108%

[ask] Need cell viability of CCOC(=O)[C@@]1(CCCCCCOc2ccc(Cl)cc2)CO1 , thanks.
[reply] 112%

[ask] Need cell viability of COc1cc2c(NC3CCN(C)CC3)nc(N3CCCN(C)CC3)nc2cc1OCCCN(C)C , thanks.
[reply] 134%

====

test system: BV-173; test: cell viability (% survival relative to DMSO control, bortezomib = 0%); higher = less cytotoxic; details: 10000 nM; 72 h
Below: a set of entries, each annotated with reported cell viability.
The answer is to be given in %; state only the numeric part.

Examples with their reported cell viability follow.
CCN(CC)CCN(Cc1ccc(-c2ccc(C(F)(F)F)cc2)cc1)C(=O)Cn1c(SCc2ccc(F)cc2)nc(=O)c2c1CCC2 = -0.184
O=C(O)CCc1ccc(NCc2cccc(Oc3ccccc3)c2)cc1 = 135
CC(Cc1ccc(O)c(O)c1)C(C)Cc1ccc(O)c(O)c1 (centres undefined) = 5.25

[ask] Need cell viability of C1CCc2nnc(C34CC5CC(CC(C5)C3)C4)n2CC1 , thanks.
[reply] 92.2
